Every entry's value here was drawn from patent US8546380B2.

experimental endpoint: melting point

Some entries whose results are on file:
• COc1cc(NC(=O)c2ccc(Cl)cn2)cc(C2(C)CCSC(N)=N2)c1.Cl (stereo not drawn) = 247 to 251 °C (dec.)
• Cc1cccc(Oc2ccc(C3(C)CCSC(N)=N3)cc2)c1 (stereo not drawn) = 109 to 110 °C
• CC1(c2ccccc2)CCCSC(N)=N1.Cl (stereo not drawn) = 223 to 225 °C
• CNC(=O)c1ccc(C2(C)CCSC(N)=N2)cc1 (stereo not drawn) = 213 to 214 °C
• Cc1cnc(C(=O)Nc2cccc(C3(C)CCSC(N)=N3)c2)cn1 (stereo not drawn) = 214 to 215 °C
• CC1(c2ccc(F)c(-n3nc4c5cc(Cl)ccc5[nH]cc-4c3=O)c2)CCSC(N)=N1 (stereo not drawn) = 290 to 295 °C
• CC1(c2ccc(C(=O)Nc3ccc(Cl)cc3)cc2)CCSC(N)=N1 (stereo not drawn) = 232 to 234 °C
• CC1(c2cccc(NC(=O)c3ncc(C(F)(F)F)cc3F)c2)CCSC(N)=N1 (stereo not drawn) = 155 to 157 °C

melting point lookup needed for CC1(c2ccc(C(=O)Nc3ccccc3)s2)CCSC(N)=N1 (stereo not drawn) , thanks. 224 to 227 °C

* * *

Target: recombinant human BACE-1 protein (Homo sapiens (Human))
Test: Measurement of Inhibition of β-Secretase Activity
Format: biochemical
Conditions: recombinant human BACE-1 protein, 3 h at 30° C., pH5.0; read-out: IC50 value
Protocol: Zero point five μL of the test compounds (dissolved in N,N′-dimethylsulfoxide) were incubated with 48.5 μL of the fluorescence-quenched peptide substrate solution (Biotin-XSEVNLDAEFRHDSGC-Eu:X=ε-amino-n-capronic acid, Eu=Europium cryptate) and 1 μL of recombinant human BACE-1 protein (R&D systems) for 3 h at 30° C. in the 96 well half-area plate (black color plate, Costar). […]
experimental endpoint: IC50 (µM)
Output spec: scalar in µM, unitless text.

• COc1cc(NC(=O)c2ccc(Cl)cn2)cc(C2(C)CCSC(N)=N2)c1.Cl (stereo not shown) = 0.174
• CC1(c2cc(Br)cc(NC(=O)c3ccno3)c2)CCSC(N)=N1.Cl (stereo not shown) = 2.56
• CC1(c2cccc(OCC(=O)Nc3ccc(Cl)cc3)c2)CCSC(N)=N1 (stereo not shown) = 2.9

Consider the additional molecule presented here.
// lookup IC50 for CC1(c2cc(Br)cc(NC(=O)c3cc4ccccc4s3)c2)CCSC(N)=N1.Cl (stereo not shown) 0.165

* * *

target: recombinant human BACE-1 protein (Homo sapiens (Human), UniProt P56817); test: Measurement of Inhibition of β-Secretase Activity; assay type: biochemical; settings: recombinant human BACE-1 protein, 3 h at 30° C., pH5.0; read-out: IC50 value
Sequence (P56817 46-501): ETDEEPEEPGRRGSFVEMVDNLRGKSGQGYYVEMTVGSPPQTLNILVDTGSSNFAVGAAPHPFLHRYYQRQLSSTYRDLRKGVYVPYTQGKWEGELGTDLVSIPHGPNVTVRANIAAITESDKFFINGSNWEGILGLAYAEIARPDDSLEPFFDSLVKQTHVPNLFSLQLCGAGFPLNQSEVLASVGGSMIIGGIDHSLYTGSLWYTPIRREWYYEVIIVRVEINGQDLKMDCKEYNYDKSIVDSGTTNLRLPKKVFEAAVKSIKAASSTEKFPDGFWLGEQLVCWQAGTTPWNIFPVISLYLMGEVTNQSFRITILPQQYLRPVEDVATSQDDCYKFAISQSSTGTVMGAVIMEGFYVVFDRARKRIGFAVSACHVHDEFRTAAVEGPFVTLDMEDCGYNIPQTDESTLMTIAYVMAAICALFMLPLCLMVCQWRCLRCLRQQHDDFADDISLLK
experimental endpoint: pIC50
// scale note: pIC50 = -log10(conc_M); give the bare number

• CCOC(=O)/C=C/c1cccc(C2(C)CCSC(N)=N2)c1 (stereo not drawn) = 5.30

Would you kindly look at the next entry?
Which pIC50 is reported with recombinant human BACE-1 protein (Homo sapiens (Human), UniProt P56817) for this entry: CCOC(=O)C(F)=Cc1cccc(C2(C)CCSC(N)=N2)c1 (stereo not drawn) ? 5.09

* * *

# melting point per record follows

Examples with answers:
* CC1(c2ccc(F)cc2)CCSC(N)=N1 (centres unmarked) | 100 to 101 °C
* COc1ccc(C2(C)N=C(N)SCC2C)cc1.Cl (centres unmarked) | 214 to 217 °C

Can you look up the measured melting point of CC1(c2ccc(F)c(OCCCc3ccccc3)c2)CCSC(N)=N1.Cl (centres unmarked) for me? 194 to 196 °C

Then what about the molecule COc1ccc(C2(C)CCSC(NC(=N)N)=N2)cc1F.Cl (centres unmarked) ? 167 to 174 °C

Also COCc1cc(NC(=O)c2ccc(Br)cc2)cc(C2(C)CCSC(N)=N2)c1.Cl (centres unmarked) , if possible. 250 to 255 °C (dec.)

* * *

experimental endpoint: melting point

* CC1(c2cccc(O)c2)CCSC(N)=N1.Cl (centres unmarked) | 238 to 239 °C
* Cc1ccccc1C1(C)CCSC(N)=N1 (centres unmarked) | 110 to 111 °C
* COC(=O)c1cccc(C2(C)CCSC(N)=N2)c1 (centres unmarked) | 156 to 159 °C
* Cc1ccccc1Oc1ccc(C2(C)CCSC(N)=N2)cc1 (centres unmarked) | 167 to 169 °C
* CC1(c2ccc(Oc3ccccc3)cc2)CCSC(N)=N1 (centres unmarked) | 169 to 170 °C
* COc1ccc(SCCOc2cccc(C3(C)CCSC(N)=N3)c2)cc1 (centres unmarked) | 131 to 132 °C
* Cc1ccc2cc(C3(C)CCSC(N)=N3)ccc2c1 (centres unmarked) | 156 to 157 °C
* CN1C(=N)SCCC1(C)c1ccc2ccccc2c1.Cl (centres unmarked) | 266 to 268 °C

What value of melting point has been recorded for this entry: Cc1cnc(C(=O)Nc2ccc(F)c(C3(C)CCSC(N)=N3)c2)cn1 (centres unmarked) 212 to 214 °C

Another compound to look at: CC1(c2cccc(NC(=O)c3ccc(N4CCOCC4)cn3)c2)CCSC(N)=N1 (centres unmarked) 189 to 191 °C

Continue with CC1(c2ccc3c(c2)CCO3)CCS/C(=N/S(C)(=O)=O)N1 (centres unmarked) 167 to 168 °C

* * *

# melting point per entry

// solved cases for melting point follow
• CC1(c2cccc(NCc3ccncc3)c2)CCSC(N)=N1 (centres unmarked) = 179 to 182 °C
• CC1(c2csc3ccccc23)CCSC(N)=N1 (centres unmarked) = 187 to 188 °C
• CC1(c2cccc(NC(=O)c3cnccn3)c2)CCSC(N)=N1 (centres unmarked) = 91 to 96 °C
• CC1(c2cccc(CO)c2)CCSC(N)=N1 (centres unmarked) = 155 to 156 °C
• Cc1ccc(C(=O)Nc2cccc(C3(C)CCSC(N)=N3)c2)nc1 (centres unmarked) = 173 to 174 °C

Value lookup for melting point; key = CN(C)Cc1ccc(C(=O)Nc2cccc(C3(C)CCSC(N)=N3)c2)nc1 (centres unmarked) 193 to 194 °C

Same question, CC1(c2cccc(COc3ccc(Cl)cc3)c2)CCSC(N)=N1 (centres unmarked) this time 105 to 106 °C

Repeat for the following molecule: CC1(c2cccc(/C=C\CCc3ccc(Cl)cc3)c2)CCSC(N)=N1.Cl (centres unmarked) 179 to 180 °C

# repeat for COc1ccc(C2(c3ccc(OC)cc3)CCSC(N)=N2)cc1 88 to 90 °C

Same question for NC1=NC2(CCCc3ccccc32)CCS1 (centres unmarked) please. 92 to 93 °C

* * *

experimental endpoint: melting point

// worked examples, melting point included
* CC1(c2cccc(NC(=O)c3ccc(C(N)=O)cn3)c2)CCSC(N)=N1.Cl (stereo not drawn) | 266 to 269 °C
* CC1(c2ccc(Oc3ccc(F)cc3)cc2)CCSC(N)=N1 (stereo not drawn) | 114 to 115 °C
* CC1(c2ccc(C(F)(F)F)cc2)CCSC(N)=N1 (stereo not drawn) | 112 to 114 °C

Alright, here's another compound for you.
Could you tell me which melting point is on file for CC1(c2ccc(OC(F)(F)F)cc2)CCSC(N)=N1 (stereo not drawn) ? 107 to 109 °C

* * *

Measured melting point accompanies every entry in the list below.

• CC1(c2cccc(NC(=O)c3ccc4ccccc4n3)c2)CCSC(N)=N1 (stereo not drawn) [Compound 935] = 161 to 165 °C

# query: melting point of entry CC1(c2cccc(OCCCN3CCCC3=O)c2)CCSC(N)=N1 (stereo not drawn) [Compound 149] 143 to 145 °C

Same lookup for CC1(c2ccccc2)CC(c2ccccc2)SC(N)=N1.Cl (stereo not drawn) , please. 161 to 165 °C

Continue with CCOc1ccc(C2(C)CCSC(N)=N2)cc1 (stereo not drawn) [Compound 132] 147 to 150 °C

Please give the result for CC1(c2cccc(CNC(=O)c3ccc(Cl)cc3)c2)CCSC(N)=N1.Cl (stereo not drawn) [Compound 1184] too. 149 to 150 °C

* * *

biological target: recombinant human BACE-1 protein (Homo sapiens (Human)); experiment: Measurement of Inhibition of β-Secretase Activity; type: biochemical; details: recombinant human BACE-1 protein, 3 h at 30° C., pH5.0; read-out: IC50 value
Measured log10(IC50), listed per entry.
Quick note: numbers are log10 of IC50, with nM as the unit.

- CC1(c2cccc(/C=C/c3ccc(Cl)cc3)c2)CCSC(N)=N1.Cl (centres unmarked) [Compound 161]: 3.89
- CC1(c2cc(Br)cc(NC(=O)c3ccccn3)c2)CCSC(N)=N1 (centres unmarked) [Compound 1160]: 2.86
- CC1(c2cc(Br)cc(NC(=O)c3nc4ccccc4s3)c2)CCSC(N)=N1.Cl (centres unmarked) [Compound 570]: 2.17
- COCc1cc(NC(=O)c2ccc(OC(F)(F)F)cc2)cc(C2(C)CCSC(N)=N2)c1 (centres unmarked) [Compound 664]: 3.56
- CC1(c2cc(NC(=O)c3ccc(Cl)cn3)cc(C(F)(F)F)c2)CCSC(N)=N1 (centres unmarked) [Compound 964]: 2.42
- Cc1ccc(NC(=O)COc2cccc(C3(C)CCSC(N)=N3)c2)cc1F (centres unmarked) [Compound 1000]: 3.90
- CC1(c2cc(NC(=O)c3ccco3)cc(C(F)(F)F)c2)CCSC(N)=N1 (centres unmarked) [Compound 163]: 3.36

Now for a further compound.
Using the record for C[C@@H](NC(=O)c1ccc(C2(C)CCSC(N)=N2)s1)c1ccccc1 (some centres unmarked) [Compound 52] , report its log10(IC50). 4.00
